Assayed Target: human M4 receptor (Homo sapiens)
Construct: expressed in transfected cells; host or cells: CHO cells
Sequence (P08173 1-479): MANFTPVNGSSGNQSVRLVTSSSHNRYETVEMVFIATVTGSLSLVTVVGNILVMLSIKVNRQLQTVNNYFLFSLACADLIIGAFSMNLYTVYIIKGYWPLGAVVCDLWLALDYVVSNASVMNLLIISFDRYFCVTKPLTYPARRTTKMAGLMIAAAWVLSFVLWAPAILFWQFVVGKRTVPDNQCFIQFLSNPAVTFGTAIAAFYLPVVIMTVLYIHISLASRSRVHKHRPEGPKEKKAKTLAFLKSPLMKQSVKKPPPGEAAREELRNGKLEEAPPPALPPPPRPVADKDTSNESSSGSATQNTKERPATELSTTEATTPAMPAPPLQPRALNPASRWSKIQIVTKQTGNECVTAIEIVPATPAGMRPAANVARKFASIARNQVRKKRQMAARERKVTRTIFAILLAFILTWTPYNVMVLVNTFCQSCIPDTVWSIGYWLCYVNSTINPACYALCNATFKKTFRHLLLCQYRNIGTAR
Method Description: Radioligand ([3H]N-methylscopolamine) binding assay, membranes from CHO cells expressing human M4 receptor
Test Settings: Ki against human M4 receptor; membranes from CHO cells; tritiated N-methylscopolamine 1.5 nM; read-out: K
pKi: −log10 of the molar value.
Reported Endpoint: pKi

Worked examples follow.
>>> print(df.to_string())
                                   compound  reported_endpoint        result
0  COc1ccc2nc(N3C[C@@H](C)N(C(=O)OC4CC5(C4)CN(Cc4ccccc4)C5)C[C@@H]3C)cnc2c1 [Compound 173]                pKi  7.00 to 8.00
1  C[C@@H]1CN(c2cnc(OC(F)(F)F)cn2)[C@@H](C)CN1C(=O)OC1CC2(C1)CN(Cc1ccccc1)C2 [Compound 204]                pKi        > 8.00
2  C[C@@H]1CN(c2ncc3cc(F)ccc3n2)C[C@H](C)N1C(=O)OC1CC2(C1)CN(Cc1ccccc1)C2 [Compound 453]                pKi  7.00 to 8.00

IN: Given the compound CSc1nc(N2C[C@@H](C)N(C(=O)OC3CC4(C3)CN(Cc3ccccc3)C4)[C@H](C)C2)ncc1Br [Compound 170] , what is its reported pKi?
OUT: 7.00 to 8.00

====

Assayed Target: human M4 receptor (Homo sapiens, UniProt P08173)
Construct: expressed in transfected cells; host or cells: CHO cells
Sequence (P08173 1-479): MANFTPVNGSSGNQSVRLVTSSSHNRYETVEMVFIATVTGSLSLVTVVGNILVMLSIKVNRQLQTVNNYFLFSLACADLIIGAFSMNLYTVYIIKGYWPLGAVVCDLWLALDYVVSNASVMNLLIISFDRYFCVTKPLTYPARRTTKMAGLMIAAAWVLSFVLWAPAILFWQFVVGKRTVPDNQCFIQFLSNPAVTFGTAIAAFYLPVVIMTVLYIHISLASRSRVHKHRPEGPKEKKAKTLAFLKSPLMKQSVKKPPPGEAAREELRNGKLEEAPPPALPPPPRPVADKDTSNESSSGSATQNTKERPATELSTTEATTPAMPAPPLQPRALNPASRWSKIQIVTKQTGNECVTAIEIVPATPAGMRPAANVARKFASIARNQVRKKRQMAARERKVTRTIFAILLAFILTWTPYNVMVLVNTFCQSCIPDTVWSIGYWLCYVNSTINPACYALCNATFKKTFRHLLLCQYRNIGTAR
Method Description: Radioligand ([3H]N-methylscopolamine) binding assay, membranes from CHO cells expressing human M4 receptor
Test Settings: Ki against human M4 receptor; membranes from CHO cells; tritiated N-methylscopolamine 1.5 nM; read-out: K
Reported Endpoint: Ki

In [3]: df
Out[3]:
                                smiles_text          result
0  C[C@@H]1CN(c2nc3cc(F)ccc3o2)C[C@H](C)N1C(=O)OC1CC2(C1)CN(Cc1ccccc1)C2    10 to 100 nM
1  C[C@@H]1CN(c2nc3ccc(F)cc3s2)[C@@H](C)CN1C(=O)NC1CC2(C1)CN(Cc1ccccc1)C2         < 10 nM
2  C[C@@H]1CN(c2cnc(C(F)(F)F)cn2)C[C@H](C)N1C(=O)OC1CC2(C1)CN(Cc1ccc(F)cc1)C2    10 to 100 nM
3  C[C@@H]1CN(c2cnc(C(F)(F)F)cn2)CCN1C(=O)NC1CC2(C1)CN(Cc1ccc(F)cc1)C2    10 to 100 nM
4  C[C@H]1CN(c2ncc(C(F)(F)F)cn2)CCN1C(=O)NC1CC2(C1)CN(Cc1ccccc1)C2    10 to 100 nM
5  C[C@@H]1CN(c2nc3ccc(C#N)cc3s2)[C@@H](C)CN1C(=O)OC1CC2(C1)CN(Cc1ccccc1)C2  100 to 1000 nM
6  O=C(OC1CC2(C1)CN(Cc1ccccc1)C2)N1C2COCC1CN(c1nc3ccc(C(F)(F)F)cc3s1)C2    10 to 100 nM
7  C[C@@H]1CN(c2nc3ccc(F)cc3s2)C[C@H](C)N1C(=O)NC1CC2(C1)CN(Cc1ccccc1)C2         < 10 nM

Next molecule, please.
IN: Given the molecule O=C(OC1CC2(C1)CN(Cc1ccccc1)C2)N1C2COCC1CN(c1ncc(C(F)(F)F)cn1)C2 , what is its reported Ki?
OUT: 10 to 100 nM
